method description: 384-well plate pilot, post-Golgi transport modulator project, inhibition of yeast transport mutant growth (AID 636)
run conditions: absorbance 615 nm, about 18 h, stronger effect = higher value
Calls of active or inactive are those of the source. No stated cut-off is given here; in the data, active means inhibition above about 31%; inactive means the rest.
Exercise: state measured inhibition for each of the molecules provided.

// inhibition value for `Cn1cccc1-c1cc(C(=O)O)[nH]n1` : -4.61% (inactive)

// inhibition value for CN(C)C(=O)N1CCCC(C(=O)NCc2ccccc2)C1 (stereo not given) : 1.92% (inactive)

// inhibition value for `CCC(C)(C)NC(=O)CN(Cc1ccc2c(c1)OCO2)C(=O)CCC(=O)Nc1ccccn1` : -5.06% (inactive)

// inhibition value for `Cc1ccc(Cn2c(SCCN3CCCCC3)nc3c2c(=O)[nH]c(=O)n3C)cc1` : -7.6% (inactive)

// inhibition value for `O=c1c2c3c(sc2n2cnnc2n1CCc1ccccc1)CCCC3` : -3.47% (inactive)

---

method description: HUVEC growth inhibition – cell-based, human, primary screen (AID 575);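 further: 100% = median of untreated cell wells with 0.1% DMSO on each plate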
run conditions: HUVEC proliferation, CellTiter-Glo luminescence, 72 h; at 10 µM; stronger effect = lower value
Sorting guide: entries reporting viability beneath 90% go in the MET pile, the rest go in the NOT MET pile.

Task item: # check: viability < 90% for `C=CCOc1nc2c(c(=O)n(C)c(=O)n2C)n1Cc1c(Cl)cccc1Cl`
Reply: NOT MET

Task item: # check: viability < 90% for COc1ccc(NC(=O)C(C)NS(=O)(=O)c2ccccc2)cc1Cl (centres undefined)
Reply: NOT MET

Task item: # check: viability < 90% for `Cc1ccc2cc(CN(Cc3ccc4c(c3)OCO4)Cc3nnnn3Cc3ccco3)c(=O)[nH]c2c1C`
Reply: MET

Task item: # check: viability < 90% for `CCCn1c2ccccc2c2nnc(SCC(=O)Nc3ncccn3)nc21`
Reply: NOT MET

Task item: # check: viability < 90% for `Cc1noc(NS(=O)(=O)c2ccc(N3C(=O)c4ccccc4C3=O)cc2)c1C`
Reply: NOT MET

Task item: # check: viability < 90% for `CCc1ccc(CN(C)CCc2ccccn2)cc1`
Reply: NOT MET

Task item: # check: viability < 90% for `CCc1nc2sc3c(c2c(=O)o1)CCCC3`
Reply: MET

---

method description: reversal of MRP1-mediated doxorubicin resistance, pilot screen, H69AR cells, doxorubicin co-treatment (AID 601)
run conditions: H69AR cells + 2 uM doxorubicin, CellTiter-Glo, 72 h; measured here: viability with 2 uM doxorubicin; at 10 µM; stronger effect = lower value
Exercise: state measured viability for each of the compounds provided.
In your response, put the unit directly after the numeric value.

// viability value for `Nc1cc(-c2ccccc2)ccc1O` : 60.9%

// viability value for `O=S(=O)(NC1CCCC1)c1ccccc1Cl` : 98.4%

// viability value for `Nc1sccc1C(=O)c1ccccc1` : 91.2%

// viability value for `C[C@]12C[C@H](O)[C@H]3[C@@H](CCC4=CC(=O)CC[C@@]43C)[C@@H]1CC[C@@H]2C(=O)CO` : 94.3%

// viability value for `CCOC(=O)c1[nH]c(C)c(C(=O)NCc2ccccn2)c1C` : 96.8%

// viability value for `CCOC(=O)c1ccc(Oc2cc(C)nc(SC)n2)cc1` : 68.5%

// viability value for `CC(=O)c1cccc(-n2nnnc2SCC(=O)N2CCCC2)c1` : 90.7%

// viability value for O=C(NCC(c1cccnc1)N1CCN(c2ccccc2)CC1)c1ccc2c(c1)OCO2 (centres undefined) : 98.2%

// viability value for `N#C/C(=C(/O)CN1CCOCC1)c1nc2ccccc2s1` : 100%

// viability value for c1ccc(CCn2nnnc2C(c2cccs2)N2CCOCC2)cc1 (centres undefined) : 94%

// viability value for COc1ccc(CC(NC(C)=O)C(=O)NC2CCN(c3nc(C)cc(C)c3C#N)CC2)c(OC)c1 (centres undefined) : 105%

// viability value for O=C(CN(CCc1ccccc1)C(=O)CNS(=O)(=O)c1ccccc1)NCC1CCCO1 (centres undefined) : 96.2%

// viability value for CCOC(=O)C(NC(=O)Nc1ccccc1)(OCC)C(F)(F)F (centres undefined) : 86.5%

// viability value for C#CC(CO)N(CCN(Cc1ccccc1)C(C#C)CO)Cc1ccccc1 (centres undefined) : 81.3%

// viability value for `CCOC(=O)c1[nH]c(C)c(C(=O)N2CCN(C(=O)c3ccco3)CC2)c1C` : 95.6%

// viability value for O=C1CC(c2ccc(S(=O)(=O)N3CCN(c4ccccc4)CC3)cc2)CN1 (centres undefined) : 94.6%

// viability value for COc1ccc(C(CNC(=O)c2ccc(OCC3CCCO3)cc2)N2CCOCC2)cc1 (centres undefined) : 90.7%

// viability value for `Cc1ccc(-c2nnn(CC(=O)N(CC(=O)NC3CCCCC3)c3cnc4ccccc4c3)n2)o1` : 80.6%

// viability value for `Cc1ccccc1NC(=O)Cc1nnc(SCC(=O)N2CCN(c3ccccc3)CC2)n1C` : 92.5%

// viability value for CCOc1ccc2[nH]c(=O)c(C(c3nnnn3Cc3ccco3)N3CCC(C)CC3)cc2c1 (centres undefined) : 87.7%

// viability value for `CCOC(=O)CSc1nc2sc(C)c(C)c2c(=O)n1C` : 84.8%

// viability value for `CO[C@@]1(NC(=O)CSCC#N)C(=O)N2C(C(=O)O)=C(CSc3nnnn3C)CS[C@@H]21` : 101%

// viability value for `O=c1c[n+]([O-])c2ccccc2n1OCc1c(F)cccc1F` : 86.3%

// viability value for `O=C(CSc1nc2ccsc2c(=O)n1NC(=O)c1ccccc1)Nc1nccs1` : 98%

// viability value for `Cc1onc(-c2ccccc2Cl)c1C(=O)Nc1cccc(-c2cn3cccnc3n2)c1` : 84.5%

// viability value for `Cn1c(SCCN2CCCCC2)nnc1-c1ccccc1Br` : 95.3%

// viability value for `Nc1nc2sc3c(c2c(=O)s1)CCCC3` : 78.1%

// viability value for `CN1CCN(C(=O)CCC(=O)c2ccc(F)cc2)CC1` : 87.2%

// viability value for COc1ccc(CN2CC(C(=O)NCCCOC(C)C)CC2=O)cc1 (centres undefined) : 95.2%

// viability value for COc1ccc(C2CC(C(F)(F)F)n3ncc(C(=O)NCc4cccnc4)c3N2)cc1OC (centres undefined) : 79.5%

// viability value for CCn1c(SCC(=O)NCc2ccco2)nc2c(c1=O)SC(C)C2 (centres undefined) : 91.7%

// viability value for `O=C(CCCC(=O)N(CC(=O)NC1CCCCC1)Cc1ccc2c(c1)OCO2)Nc1ccccn1` : 81.9%

// viability value for OC(CNCC1COc2ccccc2O1)COCc1cccs1 (centres undefined) : 82.1%

// viability value for `COc1ccc(C)cc1S(=O)(=O)N(CC(=O)O)c1ccccc1` : 97.2%
